test system: Tat-TAR interaction (TAR with hybrid CycT1-Tat protein); assay: Electrophoretic mobility shift assay (EMSA, gel shift); assay type: binding, HIV-1; conditions: concentrations between 0.1 and 1 μM; hybrid CycT1-Tat protein and TAR each at 0.1 μM
measure_name: prevention of the binding between Tat and TAR (EMSA)

smiles_record: CN1CCN(CCCN2c3ccccc3Sc3ccc(Cl)cc32)CC1
value_measured: prevent completely

smiles_record: CN1CCN(CCCN2c3ccccc3Sc3ccc(C(F)(F)F)cc32)CC1
value_measured: did not

smiles_record: CC(=O)c1ccc2c(c1)N(CCCN(C)C)c1ccccc1S2
value_measured: prevent completely

smiles_record: CCSc1ccc2c(c1)N(CCCN1CCN(C)CC1)c1ccccc1S2
value_measured: did not

Input line: What value of prevention of the binding between Tat and TAR (EMSA) has been recorded for this entry: CN(C)CCCN1c2ccccc2Sc2ccc(Cl)cc21
Output line: prevent completely

====

biological target: A-site RNA; assay: STD NMR competition experiment with paromomycin; type: binding; conditions: calculated from IC50 of the STD competition with paromomycin by Cheng and Prusoff correction; read-out: KD for the interaction with A-site RNA
pKd: −log10 of the molar value.
measure_name: pKd

Input line: What value of pKd has been recorded for this entry: CC(=O)c1ccc2c(c1)N(CCCN(C)C)c1ccccc1S2
Output line: ~5.00

====

system: HIV-1 TAR RNA; assay: NMR line broadening of ligand signals; format: binding
measure_name: Line broadening

Example entries begin here.
smiles_record: Clc1ccc2c(c1)N(CCCN1CCCCC1)c1ccccc1S2
target_or_test_system: HIV-1 TAR RNA
Line broadening: little
--
smiles_record: CC(=O)c1ccc2c(c1)N(CCCN(C)C)c1ccccc1S2
target_or_test_system: HIV-1 TAR RNA
Line broadening: yes
--
smiles_record: Clc1ccc2c(c1)N(CCCNCc1ccccc1)c1ccccc1S2
target_or_test_system: HIV-1 TAR RNA
Line broadening: little
--
smiles_record: CN(C)CCCN1c2ccccc2Sc2ccccc21
target_or_test_system: HIV-1 TAR RNA
Line broadening: yes
--
smiles_record: OCCNCCCN1c2ccccc2Sc2ccc(Cl)cc21
target_or_test_system: HIV-1 TAR RNA
Line broadening: yes

Input line: What value of Line broadening has been recorded for this entry: CCCCNCCCN1c2ccccc2Sc2ccc(Cl)cc21
Output line: yes
